Target: T1, human GIP receptor (human, UniProt P48546 22-466)
T1 sequence (looked up): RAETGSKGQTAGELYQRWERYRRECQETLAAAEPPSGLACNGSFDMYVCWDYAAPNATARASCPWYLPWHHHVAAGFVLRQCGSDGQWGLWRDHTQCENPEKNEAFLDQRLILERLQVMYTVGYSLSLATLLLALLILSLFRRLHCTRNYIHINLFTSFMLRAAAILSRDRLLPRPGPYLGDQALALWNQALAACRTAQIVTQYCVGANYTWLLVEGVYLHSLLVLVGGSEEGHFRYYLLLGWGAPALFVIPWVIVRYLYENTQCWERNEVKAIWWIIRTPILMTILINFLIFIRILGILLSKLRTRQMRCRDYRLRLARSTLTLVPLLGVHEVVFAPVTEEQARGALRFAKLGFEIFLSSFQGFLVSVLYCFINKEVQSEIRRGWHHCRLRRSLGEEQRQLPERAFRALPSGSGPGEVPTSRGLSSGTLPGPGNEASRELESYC
Experiment: cell-based or functional assay
Bridges are numbered along the chain shown (N, C = ends). Where no end group is shown, it is not given here. [ ]: non-standard residue; d: D form. Aib = CC(C)(N)C(=O)O
Please respond with reported In vitro activity (%) vs. GIP, cAMP EC50 for every item in the list.
Report the figure in % without appending any unit label.

Reported In vitro activity (%) vs. GIP, cAMP EC50 of Y[Aib]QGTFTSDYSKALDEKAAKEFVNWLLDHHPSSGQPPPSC (bridge 16-20; ends not checked) [triple agonist of SEQ ID NO: 98] : 47.1

Reported In vitro activity (%) vs. GIP, cAMP EC50 of Y[Aib]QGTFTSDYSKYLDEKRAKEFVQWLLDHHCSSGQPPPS (bridge 16-20) [triple agonist of SEQ ID NO: 43] : 3.7

Reported In vitro activity (%) vs. GIP, cAMP EC50 of Y[Aib]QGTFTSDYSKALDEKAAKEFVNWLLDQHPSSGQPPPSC (bridge 16-20) [triple agonist of SEQ ID NO: 101] : 40.1
